# EXPERIMENTAL DETAILS: Cell Viability - LYMP2-006 (AID 978);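 note: cells exposed to compound for 24 hours; nearly all actives have a fitted effect of over 60% in size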
# CONDITIONS USED: LYMP2-006 lymphoblastoid cell viability, qHTS; series mostly up to 92.2 µM
Results filed as inconclusive are left out. Activity calls are given as the source filed them. Calls come from the whole dose curve; as a rule, active = well fitted cell-killing curve with a large enough effect; inconclusive = small, poorly fitted or top-dose-only effect; inactive = flat fitted curve, though single readings scatter.
Outcomes: active, inactive

{"columns": ["SMILES DATA", "CAT"],
 "data": [
  ["Nc1ncn([C@@H]2O[C@H](CO)[C@@H](O)[C@H]2O)c(=O)n1", "active"],
  ["CCCCNC(=O)NS(=O)(=O)c1ccc(C)cc1", "inactive"],
  ["O=c1[nH]c(=O)n([C@H]2C[C@H](O)[C@@H](CO)O2)cc1Br", "inactive"],
  ["Nc1nc(N)c2nc(-c3ccccc3)c(N)nc2n1", "inactive"],
  ["CCCCOCCOCCOCc1cc2c(cc1CCC)OCO2", "inactive"],
  ["COc1ccc(CN(CCN(C)C)c2ccccn2)cc1", "inactive"],
  ["COc1cc(Cc2cnc(N)nc2N)cc(OC)c1OC", "inactive"],
  ["NC(=Nc1ccccc1)Nc1ccccc1", "inactive"],
  ["NC(=O)N1c2ccccc2C=Cc2ccccc21", "inactive"]
]}

====

# EXPERIMENTAL DETAILS: Drug repurposing screens with cells derived from glioblastoma tumor samples (AID 1345199); note: % is set by controls: 0 for no effect and ±100 for the full control effect; nearly all actives have a fitted effect of over 40% in size
# CONDITIONS USED: GBM patient neurospheres viability, ATP luminescence, 48 h; at 46.1 µM (top of the series); tumour line C
Inconclusive results are not listed.

{"columns": ["COMPOUND", "activity, negative = cell killing (%)"],
 "data": [
  ["NC(Cc1ccc(Cl)cc1)C(=O)O (stereo unspecified)", 0.887],
  ["CCCCCN(CCCCC)C(=O)C(CCC(=O)O)NC(=O)c1ccc(Cl)c(Cl)c1 (stereo unspecified)", -26.2],
  ["CC(=O)[C@@]1(O)CC[C@H]2[C@@H]3CCC4=CC(=O)CC[C@]4(C)[C@H]3CC[C@@]21C", -20.5],
  ["C[N+](C)(C)CCOC(N)=O", -0.881],
  ["Cc1ccc(/C(=C\\CN2CCCC2)c2ccccn2)cc1", 0.541],
  ["OCCN1CCN(CC/C=C2/c3ccccc3Sc3ccc(C(F)(F)F)cc32)CC1", -15],
  ["N[C@@H](COP(=O)(O)O)C(=O)O", -9.92],
  ["CN1CCN(CC(=O)N2c3ccccc3C(=O)Nc3cccnc32)CC1", 9.11],
  ["CC(C)NCC(O)c1cc(O)cc(O)c1 (stereo unspecified)", -22.7],
  ["CCOC(=O)c1cnc2c(cnn2CC)c1NN=C(C)C", -18.1],
  ["NC(=O)c1cn(Cc2c(F)cccc2F)nn1", -19.6]
]}

====

In this section, each of the compounds is paired with its reported activity change, negative = inhibition.
# EXPERIMENTAL DETAILS: NFAT Signaling Pathway (AID 444);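 note: carbachol stimulus at about its EC50 of 1 µM final; % is set by controls: 0 for no effect and ±100 for the full control effect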
# CONDITIONS USED: Jurkat NFAT-bla M1, carbachol, beta-lactamase ratio, 5 h; at 38 µM (top of the series)
Results filed as inconclusive are left out.

{"columns": ["SMILES DATA", "activity change, negative = inhibition [%]"],
 "data": [
  ["Cc1ccc(Cl)c(Nc2ccccc2C(=O)O)c1Cl", 0.114],
  ["O=C(O)CP(=O)(O)O", 3.66],
  ["CN/C(=C\\[N+](=O)[O-])NCCSCc1ccc(CN(C)C)o1", 1.99],
  ["CN(C)C(=O)Oc1cccc([N+](C)(C)C)c1", 13],
  ["O=C(O)CN(CCOCCOCCN(CC(=O)O)CC(=O)O)CC(=O)O", 0.822],
  ["CCCCNC(=O)NS(=O)(=O)c1ccc(C)cc1", 12.5],
  ["NC(N)=NC(=O)Cc1c(Cl)cccc1Cl", 2.06],
  ["O=C(CCCN1CCC(O)(c2cccc(C(F)(F)F)c2)CC1)c1ccc(F)cc1", -2.13],
  ["CCN(CC)CCNC(=O)c1ccc(NC(C)=O)cc1", -8.68],
  ["NCCCNCCSP(=O)(O)O", -0.295],
  ["CCCCNc1c(C(=O)OCC)c(C)nc2c1cnn2CC", -0.356],
  ["CCN(CC)CCNC(=O)c1cc(S(C)(=O)=O)ccc1OC", -5.52],
  ["CCn1nc(C(=O)O)c(=O)c2cc3c(cc21)OCO3", 8.98]
]}

====

# Test system: 3D7
# EXPERIMENTAL DETAILS: qHTS profiling for inhibitors of Plasmodium falciparum proliferation (AID 504749); note: nearly all actives have a fitted effect of over 60% in size
# CONDITIONS USED: P. falciparum in erythrocytes, SYBR Green DNA, 72 h; series mostly up to 28.7 µM
# Protocol: NIH National Institute of Allergy and Infectious Diseases [NIAID] NIH Chemical Genomics Center [NCGC] […] Because mature erythrocytes lack DNA, only Plasmodium-derived DNA is detected. NCGC Assay Protocol Summary: The SYBR Green viability assay was adapted from a method described previously (Plouffe et al., 2008). […] The following morning, fluorescence intensity at 485(14) nm excitation and 535(25) nm emission wavelengths was measured on an EnVision (Perkin Elmer) plate reader. […]
Records with an inconclusive call do not appear. Active and inactive are the calls of the source. Calls come from the whole dose curve; as a rule, active = well fitted inhibition curve with a large enough effect; inconclusive = small, poorly fitted or top-dose-only effect; inactive = flat fitted curve, though single readings scatter.
Outcomes: label 1 = active, label 0 = inactive

{"columns": ["COMPOUND", "CAT"],
 "data": [
  ["NC(Cc1ccc(Cl)cc1)C(=O)O (stereo not given)", "label 0"],
  ["CCN(CC)CC(=O)Nc1c(C)cccc1C", "label 0"],
  ["CC[N+](C)(C)c1cccc(O)c1", "label 0"],
  ["OCCN1CCN(CCCN2c3ccccc3C=Cc3ccccc32)CC1", "label 1"],
  ["CCN(Cc1ccncc1)C(=O)C(CO)c1ccccc1 (stereo not given)", "label 0"],
  ["CCCCCN(CCCCC)C(=O)C(CCC(=O)O)NC(=O)c1ccc(Cl)c(Cl)c1 (stereo not given)", "label 0"],
  ["C[N+](C)(C)CCCCCCCCCC[N+](C)(C)C", "label 1"],
  ["CCCN(CCC)CCc1cccc2c1CC(=O)N2", "label 0"],
  ["CCc1cccc(N(C)C(N)=Nc2cccc3ccccc23)c1", "label 0"],
  ["O=C(O)CN(CCOCCOCCN(CC(=O)O)CC(=O)O)CC(=O)O", "label 0"],
  ["NC/C=C/C(=O)O", "label 0"],
  ["NC(=Nc1ccccc1)Nc1ccccc1", "label 0"],
  ["CN(C)C/C=C(/c1ccc(Br)cc1)c1cccnc1", "label 0"],
  ["CC(C)(C)c1ccc(C(=O)CCCN2CCC(OC(c3ccccc3)c3ccccc3)CC2)cc1", "label 1"],
  ["Cc1scc2c1N(C(=O)CN1CCN(C)CC1)c1ccccc1NC2=O", "label 0"],
  ["O=C(O)CCCCCCCC(=O)O", "label 0"],
  ["C[C@H](CS)C(=O)N1CCC[C@H]1C(=O)O", "label 0"],
  ["OC(CCN1CCCCC1)(c1ccccc1)C1CCCCC1 (stereo not given)", "label 0"],
  ["CN(C)CCCN1c2ccccc2Sc2ccccc21", "label 0"],
  ["Cc1nnc(SCC2=C(C(=O)O)N3C(=O)[C@@H](NC(=O)Cn4cnnn4)[C@H]3SC2)s1", "label 0"],
  ["COc1cc2c(cc1OC)-c1cc(=Nc3c(C)cc(C)cc3C)n(C)c(=O)n1CC2", "label 1"],
  ["CC(=O)OCC1=C(C(=O)O)N2C(=O)[C@@H](NC(=O)Cc3cccs3)[C@H]2SC1", "label 0"],
  ["CCN1CCC[C@H]1CNC(=O)c1c(O)c(Cl)cc(Cl)c1OC", "label 0"],
  ["Cc1ccc(=O)n(-c2ccccc2)c1", "label 0"],
  ["NS(=O)(=O)c1cc2c(cc1Cl)NC(C1CC3C=CC1C3)NS2(=O)=O (stereo not given)", "label 0"]
]}

====

# Test system: MKL-2
# EXPERIMENTAL DETAILS: qHTS assay to identify novel small-molecules to repurpose for Merkel cell carcinoma treatment (AID 1296009); note: nearly all actives have a fitted effect of over 60% in size
# CONDITIONS USED: MCC and control cell lines, CellTiter-Glo viability, 72 h; series mostly up to 46 µM
Results filed as inconclusive are left out. Active and inactive are the calls of the source. The call rests on the fitted dose curve; in most records, active means well fitted inhibition curve with a large enough effect; inconclusive means small, poorly fitted or top-dose-only effect; inactive means flat fitted curve, though single readings scatter.
Outcomes: active, inactive

{"columns": ["SMILES DATA", "TARGET ENTITY", "CAT"],
 "data": [
  ["CN1C(=O)CC[C@H]1c1cccnc1", "MKL-2", "inactive"],
  ["CN(C)C(=O)Oc1ccc[n+](C)c1", "MKL-2", "inactive"],
  ["C[C@]12CCC(=O)C=C1CC[C@@H]1[C@@H]2CC[C@@]2(C)[C@H]1CC[C@]2(O)C(=O)CO", "MKL-2", "inactive"],
  ["CN(C)C/C=C(/c1ccc(Br)cc1)c1cccnc1", "MKL-2", "inactive"],
  ["CCN1CCc2nc(N)oc2CC1", "MKL-2", "inactive"],
  ["CN(C)CCN(Cc1cccs1)c1ccccn1", "MKL-2", "inactive"],
  ["CN(C)C(=O)Oc1cccc([N+](C)(C)C)c1", "MKL-2", "inactive"],
  ["CCO/C([O-])=N/c1c[n+](N2CCOCC2)no1", "MKL-2", "inactive"],
  ["CCCN(CCC)CCc1cccc2c1CC(=O)N2", "MKL-2", "inactive"],
  ["CN(C)CCCN1c2ccccc2Sc2ccc(C(F)(F)F)cc21", "MKL-2", "active"],
  ["C[n+]1cc2c3c(ccc2c2ccc4cc5c(cc4c21)OCO5)OCO3", "MKL-2", "active"],
  ["NC/C=C/C(=O)O", "MKL-2", "inactive"],
  ["NC(N)=NC(=O)Cc1c(Cl)cccc1Cl", "MKL-2", "inactive"]
]}
